- Test system: Podosphaera fuliginea
- METHOD: Fungicidal activity against Podosphaera fuliginea assessed as cucumber powdery mildew control under greenhouse at 2 ppm foliar application 24 hr before inoculation on upper surface of leaf at 23 +/- 2 degC by preventive manner
- Type: functional
Readings of Activity for the listed compounds

A selection of reference data follows.
CNC(=O)/C(=N/OC)c1ccccc1CCc1ccccc1
70%
CNC(=O)/C(=N/OC)c1cc(C(F)(F)F)ccc1Oc1ccccc1
<70%
CNC(=O)/C(=N/OC)c1ccccc1Oc1cccc(OCc2ccccc2)c1
70%

Lookup: For the compound CNC(=O)/C(=N/OC)c1ccc(C)cc1Oc1ccccc1 , what Activity is on record?
Found: 70%

Lookup: For the compound CNC(=O)/C(=N/OC)c1ccccc1Sc1ccccc1 , what Activity is on record?
Found: 70%

Lookup: For the compound CNC(=O)/C(=N/OC)c1ccccc1Oc1ccc(OCc2ccccc2)cc1 , what Activity is on record?
Found: <70%

Lookup: For the compound CNC(=O)/C(=N/OC)c1ccccc1Oc1cccc(C)c1 , what Activity is on record?
Found: 70%

Lookup: For the compound CCO/N=C(/C(=O)NC)c1ccccc1Oc1ccccc1 , what Activity is on record?
Found: 70%

Lookup: For the compound CNC(=O)/C(=N/OC)c1ccccc1Oc1ccc(I)cc1 , what Activity is on record?
Found: 70%

Lookup: For the compound CNC(=O)/C(=N/OC)c1ccccc1Oc1cccc(Oc2ccccc2)c1 , what Activity is on record?
Found: 70%

Lookup: For the compound CNC(=O)/C(=N/OC)c1cc(F)ccc1Oc1ccccc1 , what Activity is on record?
Found: 70%

Lookup: For the compound CNC(=O)/C(=N/OC)c1ccccc1C(=O)Oc1ccccc1 , what Activity is on record?
Found: 70%

Lookup: For the compound CNC(=O)/C(=N/OC)c1c(OC)cccc1Oc1ccccc1 , what Activity is on record?
Found: <70%

====

- System: Thanatephorus cucumeris
- METHOD: Fungicidal activity against Thanatephorus cucumeris assessed as rice sheath blight disease control at 31.3 ppm foliar application for 24 hr before inoculation at 26 +- 2 measured after 5 days by preventive manner
- Assay type: functional
EXPERIMENTAL READOUT: Activity

A selection of reference data follows.
CNC(=O)/C(=N/OC)c1ccccc1Oc1ccc([N+](=O)[O-])cc1
<70%
CNC(=O)/C(=N/OC)c1cc(F)ccc1Oc1ccccc1
70%
CNC(=O)/C(=N/OC)c1ccccc1Oc1ccc(Oc2ccccc2)cc1
70%
CNC(=O)/C(=N/OC)c1ccccc1Oc1ccccc1[N+](=O)[O-]
<70%

Consider the record given below.
Lookup: For the compound CNC(=O)/C(=N/OC)c1cc([Si](C)(C)C)ccc1Oc1ccccc1 , what Activity is on record?
Found: <70%

====

- Test system: Pseudoperonospora cubensis
- METHOD: Fungicidal activity against Pseudoperonospora cubensis assessed as cucumber downy mildew disease control at 7.8 ppm foliar application 24 hr before inoculation on upper surface of leaf by preventive manner
- Assay type: functional
EXPERIMENTAL READOUT: Activity (%)
Report only the number, with the unit % understood.

Lookup: For the compound CNC(=O)/C(=N/OC)c1ccccc1Oc1cccc(OCc2ccccc2)c1 , what Activity is on record?
Found: 70

Lookup: For the compound CNC(=O)/C(=N/OC)c1cc(OC)ccc1Oc1ccccc1 , what Activity is on record?
Found: 70

Lookup: For the compound CNC(=O)/C(=N/OC)c1ccccc1Oc1cccc(Oc2ccccc2)c1 , what Activity is on record?
Found: 70

Lookup: For the compound CNC(=O)/C(=N/OC)c1ccccc1/C=C\c1ccccc1 , what Activity is on record?
Found: 70

====

- Tested on: Pseudoperonospora cubensis
- METHOD: Fungicidal activity against Pseudoperonospora cubensis assessed as cucumber downy mildew disease control at 31.3 ppm foliar application 24 hr after inoculation on upper surface of leaf by curative manner
- Format: functional
Readings of Activity for the listed compounds
Report only the number, with the unit % understood.

C=CCOc1cccc(Oc2ccccc2/C(=N\OC)C(=O)NC)c1
50

Consider the record given below.
Lookup: For the compound CNC(=O)/C(=N/OC)c1ccccc1Oc1ccccc1 [METOMINOSTROBIN] , what Activity is on record?
Found: 50

====

- Tested on: Pseudoperonospora cubensis
- METHOD: Fungicidal activity against Pseudoperonospora cubensis assessed as cucumber downy mildew disease control at 7.8 ppm foliar application 24 hr after inoculation on upper surface of leaf by curative manner
- Format: functional
Readings of Activity for the listed compounds
Report only the number, with the unit % understood.

CNC(=O)/C(=N/OC)c1ccccc1Oc1ccc(OC)cc1
50

Consider the record given below.
Lookup: For the compound CNC(=O)/C(=N/OC)c1ccccc1Oc1ccc(Cl)c(Cl)c1 , what Activity is on record?
Found: 50

====

- System: Podosphaera fuliginea
- METHOD: Fungicidal activity against Podosphaera fuliginea assessed as cucumber powdery mildew control under greenhouse at 7.8 ppm foliar application 24 hr before inoculation on upper surface of leaf at 23 +/- 2 degC by preventive manner
- Format: functional
EXPERIMENTAL READOUT: Activity (%)
Report only the number, with the unit % understood.

CNC(=O)/C(=N/OC)c1cc(C)ccc1Oc1ccccc1
70
CNC(=O)/C(=N/OC)c1ccc(Oc2ccccc2)cc1
70
CNC(=O)/C(=N/OC)c1cccc(Oc2ccccc2)c1
70
CNC(=O)/C(=N/OC)c1ccccc1Oc1ccccc1
70

Lookup: For the compound CNC(=O)/C(=N/OC)c1ccccc1Oc1cccc(OCC#N)c1 , what Activity is on record?
Found: 70

Lookup: For the compound CNC(=O)/C(=N/OC)c1ccccc1Oc1cccc(OCc2ccccc2)c1 , what Activity is on record?
Found: 70

Lookup: For the compound C=CCOc1cccc(Oc2ccccc2/C(=N\OC)C(=O)NC)c1 , what Activity is on record?
Found: 70

Lookup: For the compound CNC(=O)/C(=N/OC)c1ccccc1Oc1ccc(Br)cc1 , what Activity is on record?
Found: 70

Lookup: For the compound CNC(=O)/C(=N/OC)c1ccccc1Oc1cccc(OC)c1 , what Activity is on record?
Found: 70

Lookup: For the compound CNC(=O)/C(=N/OC)c1ccccc1OCc1ccccc1 , what Activity is on record?
Found: 70

Lookup: For the compound CCO/N=C(/C(=O)NC)c1ccccc1Oc1ccccc1 , what Activity is on record?
Found: 70

Lookup: For the compound CNC(=O)/C(=N/OC)c1cc(F)ccc1Oc1ccccc1 , what Activity is on record?
Found: 70

====

Readings of Activity for the listed compounds
- System: Botrytis cinerea
- METHOD: Fungicidal activity against Botryotinia fuckeliana assessed as cucumber gray mold disease control at 125 ppm foliar application 24 hr after inoculation at 22 +/- 2 degC measured after 3 days by curative manner
- Type: functional
Report only the number, with the unit % understood.

CNC(=O)/C(=N/OC)c1ccccc1Oc1ccccc1C
50
CNC(=O)/C(=N/OC)c1ccccc1Oc1cccc(C)c1
50

Lookup: Provide value of Activity for this record tested with Botrytis cinerea: CNC(=O)/C(=N/OC)c1ccccc1Oc1ccc(Cl)c(Cl)c1
Found: 50

====

Readings of Activity for the listed compounds
- System: Thanatephorus cucumeris
- METHOD: Fungicidal activity against Thanatephorus cucumeris assessed as rice sheath blight disease control at 7.8 ppm foliar application for 24 hr before inoculation at 26 +- 2 measured after 5 days by preventive manner
- Type: functional
Report only the number, with the unit % understood.

A selection of reference data follows.
CNC(=O)/C(=N/OC)c1ccccc1Oc1ccc(Oc2ccccc2)cc1
70
CNC(=O)/C(=N/OC)c1ccccc1Oc1cccc(OCc2ccccc2)c1
70
CNC(=O)/C(=N/OC)c1ccccc1Oc1ccc(C(C)(C)C)cc1
70
CNC(=O)/C(=N\OC)c1ccccc1Oc1ccccc1
0
CNC(=O)/C(=N/OC)c1ccccc1/C=C\c1ccccc1
70

Lookup: For the compound CNC(=O)/C(=N/OC)c1cc(OC)ccc1Oc1ccccc1 , what Activity is on record?
Found: 70

Lookup: For the compound CNC(=O)/C(=N/OC)c1ccccc1Oc1ccccc1 [METOMINOSTROBIN] , what Activity is on record?
Found: 50

Lookup: For the compound CNC(=O)/C(=N/OC)c1ccc(C)cc1Oc1ccccc1 , what Activity is on record?
Found: 70

Lookup: For the compound CNC(=O)/C(=N/OC)c1ccccc1Oc1cccc(C)c1 , what Activity is on record?
Found: 70

Lookup: For the compound CNC(=O)/C(=N/OC)c1ccccc1Oc1cccc(OC)c1 , what Activity is on record?
Found: 70

Lookup: For the compound CCNC(=O)/C(=N/OC)c1ccccc1Oc1ccccc1 , what Activity is on record?
Found: 70

====

Readings of Activity for the listed molecules
- System: Botrytis cinerea
- METHOD: Fungicidal activity against Botryotinia fuckeliana assessed as cucumber gray mold disease control at 125 ppm foliar application 24 hr after inoculation at 22 +/- 2 degC measured after 3 days by curative manner
- Assay type: functional

A selection of reference data follows.
C=CCOc1cccc(Oc2ccccc2/C(=N\OC)C(=O)NC)c1
50%
CNC(=O)/C(=N/OC)c1ccccc1Oc1ccc(Br)cc1
50%
CNC(=O)/C(=N/OC)c1ccccc1Oc1ccc([Si](C)(C)C)cc1
<50%
CNC(=O)/C(=N/OC)c1ccccc1Oc1cccc(Oc2ccccc2)c1
50%
CNC(=O)/C(=N/OC)c1ccccc1Oc1ccc(OC)cc1
50%

Lookup: For the molecule CNC(=O)/C(=N/OC)c1ccccc1Oc1ccc(Cl)c(C)c1 , what Activity is on record?
Found: 50%
